# test.target: CCR1 (Homo sapiens)
# Sequence (P32246 1-355): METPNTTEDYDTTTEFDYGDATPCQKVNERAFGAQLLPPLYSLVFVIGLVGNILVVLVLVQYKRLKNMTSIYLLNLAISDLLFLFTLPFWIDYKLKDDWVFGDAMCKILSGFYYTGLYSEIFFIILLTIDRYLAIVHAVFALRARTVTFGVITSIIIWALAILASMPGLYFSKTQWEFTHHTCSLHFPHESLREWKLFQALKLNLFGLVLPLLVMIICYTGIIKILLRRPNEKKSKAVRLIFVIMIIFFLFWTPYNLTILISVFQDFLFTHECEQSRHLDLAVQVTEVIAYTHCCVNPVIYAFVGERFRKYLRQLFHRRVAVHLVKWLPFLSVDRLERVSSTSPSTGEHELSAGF
assay.metric: IC50

Observe how each entry below is paired with its result.
>>> obs_value("COc1cc(C2(O)CCN(C(=O)Cn3nc(-c4ncco4)c(Cl)c3C)CC2)ccc1Cl [Example 5]")
"< 1 µM"
>>> obs_value("Cc1c(Cl)c(C(F)(F)F)nn1CC(=O)N1CCC(CN)(c2ccc(Cl)cc2)CC1 [Example 24]")
"1 to 25 µM"
>>> obs_value("Cc1c(Cl)c(C(F)(F)F)nn1CC(=O)N1CCC(C(=O)N2CCN(C)CC2)(c2ccc(Cl)cc2)CC1 [Example 18]")
"> 25 µM"
>>> obs_value("Cc1c(Cl)c(C(F)(F)F)nn1CC(=O)N1CCC(C(=O)N2CCCCC2)(c2ccc(Cl)cc2)CC1 [Example 16]")
"1 to 25 µM"
>>> obs_value("CCC(=O)C1(c2ccccc2)CCN(C(=O)Cn2nc(C(F)(F)F)c(Cl)c2C)CC1 [Example 28]")
"1 to 25 µM"
>>> obs_value("Cc1c(Cl)c(C(F)(F)F)nn1CC(=O)N1CCC(c2ccc(Cl)cc2)(c2nnn[nH]2)CC1 [Example 20]")
"1 to 25 µM"

Attention now turns to another entry.
For this compound ( Cc1c(Cl)c(C(F)(F)F)nn1CC(=O)N1CCC(C#N)(c2ccc(Cl)cc2)CC1 [Example 1] ), measured IC50 is < 1 µM

###

Listed here: molecules with reported pIC50 for CCR1 (Homo sapiens).
pIC50: −log10 of the molar value.

Observe how each entry below is paired with its result.
>>> obs_value("COc1cc(C2(O)CCN(C(=O)Cn3nc(C(F)(F)F)c(Cl)c3C)CC2)ccc1Cl")
"> 6.00"
>>> obs_value("CCN(CC)C(=O)C1(c2ccc(Cl)cc2)CCN(C(=O)Cn2nc(C(F)(F)F)c(Cl)c2C)CC1")
"4.60 to 6.00"
>>> obs_value("Cc1c(Cl)c(C(F)(F)F)nn1CC(=O)N1CCC(C(=O)N2CCOCC2)(c2ccc(Cl)cc2)CC1")
"4.60 to 6.00"
>>> obs_value("Cc1c(Cl)c(C(F)(F)F)nn1CC(=O)N1CCC(C#N)(c2ccccc2)CC1")
"4.60 to 6.00"
>>> obs_value("CC(=O)C1(c2ccccc2)CCN(C(=O)Cn2nc(C(F)(F)F)c(Cl)c2C)CC1")
"4.60 to 6.00"

Entry COC(=O)C1(c2ccc(Cl)cc2)CCN(C(=O)Cn2nc(C(F)(F)F)c(Cl)c2C)CC1 : pIC50 on CCR1 (Homo sapiens) = > 6.00

Entry CCCC(=O)C1(c2ccccc2)CCN(C(=O)Cn2nc(C(F)(F)F)c(Cl)c2C)CC1 : pIC50 on CCR1 (Homo sapiens) = > 6.00

Entry Cc1c(Cl)c(C(F)(F)F)nn1CC(=O)N1CCC(O)(c2ccc(Cl)cc2)CC1 : pIC50 on CCR1 (Homo sapiens) = > 6.00

###

Listed here: molecules with reported IC50 for CCR1 (Homo sapiens, UniProt P32246).

Observe how each entry below is paired with its result.
>>> obs_value("Cc1c(Cl)c(C(F)(F)F)nn1CC(=O)N1CCC(C(=O)N2CCNCC2)(c2ccc(Cl)cc2)CC1 [Example 17]")
"> 25000 nM"
>>> obs_value("COc1cc(C2(C#N)CCN(C(=O)Cn3nc(C(F)(F)F)c(Cl)c3C)CC2)ccc1Cl [Example 26]")
"< 1000 nM"
>>> obs_value("CNC(=O)C1(c2ccc(Cl)cc2)CCN(C(=O)Cn2nc(C(F)(F)F)c(Cl)c2C)CC1 [Example 13]")
"1000 to 25000 nM"

Entry Cc1c(Cl)c(C(F)(F)F)nn1CC(=O)N1CCC(O)(c2ccc(Br)cc2)CC1 [Example 10] : IC50 on CCR1 (Homo sapiens, UniProt P32246) = 1000 to 25000 nM

Entry Cc1c(Cl)c(-c2ncco2)nn1CC(=O)N1CCC(C#N)(c2ccc(Cl)cc2)CC1 [Example 3] : IC50 on CCR1 (Homo sapiens, UniProt P32246) = < 1000 nM

Entry Cc1c(Cl)c(C(F)(F)F)nn1CC(=O)N1CCC(C(=O)N2CCCC2)(c2ccc(Cl)cc2)CC1 [Example 15] : IC50 on CCR1 (Homo sapiens, UniProt P32246) = 1000 to 25000 nM

Entry Cc1c(Cl)c(C(F)(F)F)nn1CC(=O)N1CCC(C(=O)O)(c2ccc(Cl)cc2)CC1 [Example 25] : IC50 on CCR1 (Homo sapiens, UniProt P32246) = > 25000 nM

Entry Cc1c(Cl)c(C(F)(F)F)nn1CC(=O)N1CCC(C(=N)NO)(c2ccc(Cl)cc2)CC1 [Example 21] : IC50 on CCR1 (Homo sapiens, UniProt P32246) = < 1000 nM

Origin of values: patent US7576218B2
